meta.source: patent US8546579B2

# Experimental target: P2X7 receptor (Homo sapiens, UniProt Q99572)
# Construct: host or cells: THP-1 cells differentiated with LPS and IFN-γ
# Assay name: IL-1β release assay in differentiated THP-1 cells stimulated with BzATP (Example 9)
# Type: cell-based
# Set-up: dose or concentration left out as unconfirmed
# Study conditions: THP-1; read-out: IL-1β % Inhib.
Reported metric: inhibition

1) COc1cccc(CCC(=O)Nc2cccc3c(=O)n(CCN(C)C)ccc23)c1; 26 to 50%
2) COc1ccccc1CC(=O)Nc1cccc2c(=O)n(Cc3ccc(OC(F)(F)F)cc3)ccc12; 0 to 25%
3) COc1ccc(CC(=O)Nc2cccc3c(=O)n(CCCN4CCCC4=O)ccc23)cc1C; 0 to 25%
4) COc1ccc(C(=O)Nc2cccc3c(=O)n(CCN(C)C)ccc23)c(C)c1; 0 to 25%

Request: Give the measured inhibition for COCCn1ccc2c(NC(=O)Cc3ccccc3F)cccc2c1=O
Result: 0 to 25%

====

# Experimental target: P2X7 receptor (Homo sapiens, UniProt Q99572)
# Construct: host or cells: THP-1 cells differentiated with LPS and IFN-γ
# Assay name: IL-1β release assay in differentiated THP-1 cells stimulated with BzATP (Example 9)
# Format: cell-based
# Study conditions: 0.1 μM compound; differentiated THP-1 cells, BzATP 250 uM; "*" class symbols; read-out: IL-1β % Inhib. ("*" symbols: at 0.1 μM)
Reported metric: inhibition at 0.1 µM

1. CC(c1ccccn1)n1ccc2c(NC(=O)Cc3ccc(Cl)c(F)c3)cccc2c1=O (centres unmarked); 26 to 50%

Request: Give the measured inhibition at 0.1 µM for CC(c1ccccn1)n1ccc2c(NC(=O)[C@H](C)c3ccc(Cl)c(Cl)c3)cccc2c1=O (some centres unmarked)
Result: 26 to 50%

Request: Give the measured inhibition at 0.1 µM for COc1ccc(CC(=O)Nc2cccc3c(=O)n(Cc4ccc(OC(F)(F)F)cc4)ccc23)c(OC)c1
Result: 0 to 25%

Request: Give the measured inhibition at 0.1 µM for Cc1c(Cl)cccc1C(=O)Nc1cccc2c(=O)n(Cc3ccc(OC(F)(F)F)cc3)ccc12
Result: 26 to 50%

Request: Give the measured inhibition at 0.1 µM for Cc1cc(C)cc(CC(=O)Nc2cccc3c(=O)n(Cc4ccc(OC(F)(F)F)cc4)ccc23)c1
Result: 0 to 25%

====

# Experimental target: P2X7 receptor (Homo sapiens)
# Assay name: IL-1β release assay in differentiated THP-1 cells stimulated with BzATP (Example 9)
# Study conditions: THP-1 cells, BzATP-stimulated IL-1β release, four parameter logistic fit
Reported metric: IC50 (µM)

P. CC(C)(C)OC(=O)N1CCC[C@H]1Cn1ccc2c(NC(=O)Cc3ccc(Cl)c(C(F)(F)F)c3)cccc2c1=O
Q. CC(c1ccccn1)n1ccc2c(NC(=O)Cc3ccc(C(F)(F)F)cc3)cccc2c1=O (stereo not shown)
Request: Between item P and item Q , which reported IC50 is smaller? // respond with label for picked entry
Result: P

====

Below, each entry is listed with its recorded inhibition at 0.3 µM.
# Experimental target: P2X7 receptor (Homo sapiens)
# Construct: host or cells: THP-1 cells differentiated with LPS and IFN-γ
# Sequence (Q99572 1-595): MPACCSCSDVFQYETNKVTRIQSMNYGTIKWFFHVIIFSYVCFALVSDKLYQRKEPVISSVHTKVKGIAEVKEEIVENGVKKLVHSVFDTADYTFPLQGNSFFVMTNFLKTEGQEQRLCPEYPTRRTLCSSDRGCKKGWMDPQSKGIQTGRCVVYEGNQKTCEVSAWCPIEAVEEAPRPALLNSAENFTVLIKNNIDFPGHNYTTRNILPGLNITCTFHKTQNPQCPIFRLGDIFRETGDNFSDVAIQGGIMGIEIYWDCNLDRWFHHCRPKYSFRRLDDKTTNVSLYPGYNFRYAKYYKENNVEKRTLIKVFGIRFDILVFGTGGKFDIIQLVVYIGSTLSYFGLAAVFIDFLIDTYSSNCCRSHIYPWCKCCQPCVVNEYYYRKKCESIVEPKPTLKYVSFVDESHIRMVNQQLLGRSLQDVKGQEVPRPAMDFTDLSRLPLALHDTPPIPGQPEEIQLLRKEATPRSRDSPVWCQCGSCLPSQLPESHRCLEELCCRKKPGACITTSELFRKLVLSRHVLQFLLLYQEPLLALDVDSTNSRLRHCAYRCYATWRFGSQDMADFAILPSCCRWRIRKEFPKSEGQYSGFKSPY
# Assay name: IL-1β release assay in differentiated THP-1 cells stimulated with BzATP (Example 9)
# Assay type: cell-based
# Study conditions: 0.3 μM compound; differentiated THP-1 cells, BzATP 250 uM; "+" class symbols; read-out: IL-1β % Inhib. @ 0.3 μM

Some compounds with recorded inhibition at 0.3 µM:
1) CC(C)(C)OC(=O)N1CCC[C@H]1Cn1ccc2c(NC(=O)Cc3ccc(Cl)c(C(F)(F)F)c3)cccc2c1=O; ≥ 76%
2) CC(C)(C)OC(=O)N1CCC[C@H]1Cn1ccc2c(NC(=O)CC3CCCCCC3)cccc2c1=O; ≥ 76%
3) CN(C)CCn1ccc2c(NC(=O)Cc3ccc(Cl)cc3C(F)(F)F)cccc2c1=O; 0 to 25%
4) O=C(Cc1cccc(C(F)(F)F)c1F)Nc1cccc2c(=O)n(Cc3ccc(C(F)(F)F)nc3)ccc12; 0 to 25%

Request: Give the measured inhibition at 0.3 µM for CN(C)CCn1ccc2c(NC(=O)C3(c4ccc(Cl)cc4)CCCC3)cccc2c1=O
Result: 0 to 25%

====

# Experimental target: P2X7 receptor (Homo sapiens)
# Construct: host or cells: THP-1 cells differentiated with LPS and IFN-γ
# Assay name: IL-1β release assay in differentiated THP-1 cells stimulated with BzATP (Example 9)
# Assay type: cell-based
# Study conditions: 0.3 μM compound; differentiated THP-1 cells, BzATP 250 uM; symbols + to ++++; read-out: IL-1β % Inhib. @ 0.3 μM
# Procedure: THP-1 cells (ATCC Cat # 285-IF-100) are plated in 96 well plates at a concentration of 200,000 cells per well and allowed to differentiate in RPMI-1640 media (ATCC Cat # 30-2001) containing 10% FBS, 100 IU/mL penicillin, 100 ug/mL streptomycin, 100 ng/mL LPS and 100 ng/mL IFN-γ for 16 hours. […] 30 uL of cell supernatant is then collected and IL-1β levels determined via ELISA (R&D systems Cat. # HSLB50) according to manufacturer's recommendations using the Tecan Safire plate reader. […]
Reported metric: inhibition at 0.3 µM

1. CC(=O)OCCn1ccc2c(NC(=O)CCc3ccc(S(C)(=O)=O)cc3)cccc2c1=O [Compound 1383]; 0 to 25%

Request: Give the measured inhibition at 0.3 µM for Cc1ccccc1CC(=O)Nc1cccc2c(=O)n(CCN3CCOCC3)ccc12 [Compound 1208]
Result: 0 to 25%

Request: Give the measured inhibition at 0.3 µM for Cn1ccc2c(NC(=O)c3cc4cc(Cl)ccc4o3)cccc2c1=O [Compound 1308]
Result: 0 to 25%

Request: Give the measured inhibition at 0.3 µM for CC(C)(C)Cn1ccc2c(NC(=O)CC3CC4CC[C@H]3C4)cccc2c1=O (some centres unmarked) [Compound 1270]
Result: 0 to 25%

Request: Give the measured inhibition at 0.3 µM for Cc1cccc(CCC(=O)Nc2cccc3c(=O)n(CCN4CCOCC4)ccc23)c1 [Compound 1237]
Result: 26 to 50%

Request: Give the measured inhibition at 0.3 µM for O=C(Nc1cccc2c(=O)n(CCN3CCOCC3)ccc12)c1cc2cc(Cl)ccc2o1 [Compound 1238]
Result: 26 to 50%

Request: Give the measured inhibition at 0.3 µM for Cc1ccc(CC(=O)Nc2cccc3c(=O)n(CC(C)(C)C)ccc23)cc1 [Compound 1262]
Result: 0 to 25%

Request: Give the measured inhibition at 0.3 µM for COc1ccc(CC(=O)Nc2cccc3c(=O)n(CC(C)(C)C)ccc23)cc1 [Compound 1260]
Result: 0 to 25%

====

Below, each entry is listed with its recorded inhibition at 0.3 µM.
# Experimental target: P2X7 receptor (Homo sapiens, UniProt Q99572)
# Construct: host or cells: THP-1 cells differentiated with LPS and IFN-γ
# Sequence (Q99572 1-595): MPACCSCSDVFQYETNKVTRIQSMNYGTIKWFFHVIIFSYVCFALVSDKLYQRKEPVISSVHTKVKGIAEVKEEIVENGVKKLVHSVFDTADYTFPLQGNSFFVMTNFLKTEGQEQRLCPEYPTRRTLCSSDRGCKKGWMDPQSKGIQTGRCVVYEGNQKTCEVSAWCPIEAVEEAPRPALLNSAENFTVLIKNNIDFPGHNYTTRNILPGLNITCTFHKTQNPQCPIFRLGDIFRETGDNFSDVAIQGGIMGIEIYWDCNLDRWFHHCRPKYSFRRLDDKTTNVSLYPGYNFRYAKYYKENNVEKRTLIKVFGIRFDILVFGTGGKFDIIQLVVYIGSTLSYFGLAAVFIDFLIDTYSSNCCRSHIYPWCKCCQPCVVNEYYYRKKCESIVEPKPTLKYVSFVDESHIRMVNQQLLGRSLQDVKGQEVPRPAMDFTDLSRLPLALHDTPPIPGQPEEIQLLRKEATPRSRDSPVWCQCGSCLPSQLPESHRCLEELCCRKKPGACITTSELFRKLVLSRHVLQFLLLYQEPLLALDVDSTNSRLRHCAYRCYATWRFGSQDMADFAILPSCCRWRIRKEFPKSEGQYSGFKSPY
# Assay name: IL-1β release assay in differentiated THP-1 cells stimulated with BzATP (Example 9)
# Type: cell-based
# Study conditions: 0.3 μM compound; differentiated THP-1 cells, BzATP 250 uM; '+' class symbols; read-out: IL-1β % Inhib. @ 0.3 μM
# Procedure: THP-1 cells (ATCC Cat # 285-IF-100) are plated in 96 well plates at a concentration of 200,000 cells per well and allowed to differentiate in RPMI-1640 media (ATCC Cat # 30-2001) containing 10% FBS, 100 IU/mL penicillin, 100 ug/mL streptomycin, 100 ng/mL LPS and 100 ng/mL IFN-γ for 16 hours. […] 30 uL of cell supernatant is then collected and IL-1β levels determined via ELISA (R&D systems Cat. # HSLB50) according to manufacturer's recommendations using the Tecan Safire plate reader. […]

1. CCOc1cccc(C(=O)Nc2cccc3c(=O)n(CC(C)(C)C)ccc23)c1 [Compound 1053]; 0 to 25%

Request: Give the measured inhibition at 0.3 µM for CC(=O)OCCn1ccc2c(NC(=O)CC3(O)CCCCCC3)cccc2c1=O [Compound 1015]
Result: ≥ 76%

Request: Give the measured inhibition at 0.3 µM for COc1ccc(C(=O)Nc2cccc3c(=O)n(CCN(C)C)ccc23)cc1C [Compound 1184]
Result: 0 to 25%

Request: Give the measured inhibition at 0.3 µM for CN(C)CCn1ccc2c(NC(=O)c3ccc(Cl)cc3Cl)cccc2c1=O [Compound 1138]
Result: 0 to 25%
